biological target: σ receptors labelled by [^3H]DTG (σ1 + σ2); test: Sigma receptor binding assay, [3H]DTG; conditions: read-out: IC50 ± SEM [^3H]DTG (σ1 + σ2); guinea pig brain membranes; compounds 1-5 tested up to 10 µM
pIC50: −log10 of the molar value.
Let's look at some compounds and their measured pIC50.
readout name: pIC50

>  <compound>
O=CN1CC[C@]23CC(=O)CC[C@H]2[C@H]1CC1=C3C(=O)C=CC1=O [Compound 2, 1,4-dione-N-formylmorphinan-6-one]

>  <readout name>
pIC50

>  <assay value>
< 8.00

$$$$
>  <compound>
C=CCN1CC[C@]23CC(=O)CC[C@@]2(OC)[C@H]1Cc1cccc(OC)c13 [Compound 5, 4,14-dimethoxy-N-allyl-morphinan-6-one]

>  <readout name>
pIC50

>  <assay value>
< 5.00

$$$$
>  <compound>
C=CCN1CC[C@]23CC(=O)CC[C@H]2[C@H]1Cc1cccc(OC)c13 [Compound 4, 4-methoxy-N-allylmorphinan-6-one]

>  <readout name>
pIC50

>  <assay value>
< 5.00

$$$$
>  <compound>
O=CN1CC[C@]23c4c5cccc4OC2C(=O)CC[C@H]3[C@H]1C5 (stereo in doubt) [Compound 3, 4,5-epoxy-N-formylmorphinan-6-one]

>  <readout name>
pIC50

>  <assay value>
< 5.00

$$$$
>  <compound>
Cc1ccccc1NC(=N)Nc1ccccc1C [DTG, reference compound]

>  <readout name>
pIC50

>  <assay value>
6.90

$$$$
>  <compound>
C=CCN1CC[C@]2(C)c3cc(O)ccc3C[C@H]1[C@H]2C [(+)-SKF-10,047, reference compound]

>  <readout name>
pIC50

>  <assay value>
6.54

$$$$
>  <compound>
O=CN1CC[C@]23CC(=O)CC[C@H]2[C@H]1Cc1c(O)ccc(O)c13 [Compound 1, 1,4-dihydroxy-N-formylmorphinan-6-one]

>  <readout name>
pIC50

>  <assay value>
< 5.00

$$$$
>  <compound>
CC(C)=CCN1CCC2(C)c3cc(O)ccc3CC1C2C (racemic) [(±)Pentazocine, reference compound]

>  <readout name>
pIC50

>  <assay value>
7.26

$$$$

* * *

target: δ opioid receptors (Rattus norvegicus, UniProt P33533); construct: Membrane fractions were prepared from Sprague-Dawley rat or guinea pig brains; from tissue; host or cells: Sprague-Dawley rat brain (without cerebella) membranes; assay: Opioid receptor binding assay, [3H][Ile5,6]deltorphin II, rat brain membranes; set-up: species or system Sprague-Dawley rat; conditions: no specific binding; read-out: Ki, δ opioid receptor
Sequence (P33533 whole entry): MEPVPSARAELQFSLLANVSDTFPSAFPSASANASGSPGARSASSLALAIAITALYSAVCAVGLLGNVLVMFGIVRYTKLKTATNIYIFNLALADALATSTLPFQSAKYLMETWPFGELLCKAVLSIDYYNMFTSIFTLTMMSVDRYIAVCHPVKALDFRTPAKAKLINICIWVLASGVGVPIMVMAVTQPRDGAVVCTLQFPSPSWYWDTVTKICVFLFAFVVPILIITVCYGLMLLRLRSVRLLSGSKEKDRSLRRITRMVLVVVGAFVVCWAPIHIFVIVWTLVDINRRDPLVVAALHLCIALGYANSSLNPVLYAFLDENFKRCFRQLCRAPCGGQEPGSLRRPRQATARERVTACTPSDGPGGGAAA

>  <molecule>
O=CN1CC[C@]23CC(=O)CC[C@H]2[C@H]1CC1=C3C(=O)C=CC1=O [Compound 2, 1,4-dione-N-formylmorphinan-6-one]

>  <Ki>
> 10 µM

$$$$

* * *

molecular target: µ opioid receptor (Rattus norvegicus); experiment: Opioid receptor binding assay, [3H]DAMGO, rat brain membranes; design: Membrane fractions were prepared from Sprague-Dawley rat or guinea pig brains; from tissue; host or cells: Sprague-Dawley rat brain (without cerebella) membranes; species or system Sprague-Dawley rat
Sequence (P33535 whole entry): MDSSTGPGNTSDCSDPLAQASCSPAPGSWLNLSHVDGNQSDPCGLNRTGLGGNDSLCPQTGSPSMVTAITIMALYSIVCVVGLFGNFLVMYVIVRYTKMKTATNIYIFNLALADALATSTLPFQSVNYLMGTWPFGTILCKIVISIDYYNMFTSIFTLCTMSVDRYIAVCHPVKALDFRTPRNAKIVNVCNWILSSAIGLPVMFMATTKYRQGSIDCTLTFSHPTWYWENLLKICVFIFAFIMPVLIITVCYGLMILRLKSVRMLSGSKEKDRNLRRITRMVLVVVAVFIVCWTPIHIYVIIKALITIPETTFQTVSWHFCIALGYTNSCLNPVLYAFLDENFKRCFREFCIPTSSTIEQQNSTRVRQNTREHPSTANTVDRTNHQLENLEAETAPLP

>  <molecule>
O=CN1CC[C@]23CC(=O)CC[C@H]2[C@H]1Cc1c(O)ccc(O)c13 [Compound 1, 1,4-dihydroxy-N-formylmorphinan-6-one]

>  <binding to opioid receptor µ (in words)>
does not bind

$$$$
>  <molecule>
O=CN1CC[C@]23c4c5cccc4OC2C(=O)CC[C@H]3[C@H]1C5 (some centres unmarked) [4,5-epoxy-N-formylmorphinan-6-one]

>  <binding to opioid receptor µ (in words)>
does not bind

$$$$
>  <molecule>
O=CN1CC[C@]23CC(=O)CC[C@H]2[C@H]1CC1=C3C(=O)C=CC1=O [1,4-dione-N-formylmorphinan-6-one]

>  <binding to opioid receptor µ (in words)>
does not bind

$$$$
